- Test system: SW-620
- experiment summary: NCI tumour cell line growth inhibition, 48 h
Active and inactive are the calls of the source. Rule as the data show it: active = GI50 up to about 1.1 µM and inactive = higher.
Provide the recorded GI50 for the entries that follow.

Q: Requested field: GI50. Item: COC(=O)/C(=C\c1ccc(N(CCC#N)CCC#N)cc1)NC(=O)c1cc([N+](=O)[O-])ccc1Cl
Ans: > 100 µM (inactive)

Q: // returns reported GI50 for input c1ccc(-c2nnn3c2NC2=C(CCCC2)C3c2ccccc2)cc1 (configuration not stated)
Ans: 12.5 µM (inactive)

Q: Param item = CNC(C#N)c1ccc(OC)cc1 (configuration not stated) ; retrieve measured GI50.
Ans: 94.2 µM (inactive)

Q: # GI50 lookup, item Cc1c2ccccc2c(C)n2c1nc1ccccc12
Ans: 3.73 µM (inactive)

Q: Need GI50, item CN(C)CC1CC/C(=C\c2ccc(Cl)c(Cl)c2)C1=O (configuration not stated)
Ans: 24.3 µM (inactive)

Q: Could you tell me which GI50 is on file for CCOC(=O)c1cc(=O)c2ccnc3c2n1CCS3 ?
Ans: > 100 µM (inactive)

Q: Request the reported GI50 associated with CCN(CC)C1CCC(C2c3cc4c(cc3OC(N3CCOCC3)C2C)OCO4)CC1 (configuration not stated)
Ans: 16.1 µM (inactive)
